# experimental.details: PK studies in animals of salt crystal forms, intragastric 30 mg/kg
# Assay type: in vivo
# condition.description: rat, in vivo, po, rats, 30 mg/kg (as free compound), 0.5% HPMC K4M suspension
metric.name: Cmax (ng/mL)
Could you give me the number in ng/mL? Just the number is fine.

Some solved cases for reference:
INSERT INTO measurements (compound, reported_result) VALUES
  ('CCS(=O)(=O)O.C[C@H](Nc1ccc2c(c1)OCCn1cc(N3C(=O)SC[C@H]3C(F)F)nc1-2)C(N)=O [crystal form A of ethanesulfonate salt]', 1460),
  ('C[C@H](Nc1ccc2c(c1)OCCn1cc(N3C(=O)SC[C@H]3C(F)F)nc1-2)C(N)=O.O=S(=O)(O)O [crystal form D of sulfate salt]', 1360);

-- ask Reported Cmax for CS(=O)(=O)O.C[C@H](Nc1ccc2c(c1)OCCn1cc(N3C(=O)SC[C@H]3C(F)F)nc1-2)C(N)=O [crystal form A of mesylate salt] : what is it?
-- reply 1180

###

# experimental.details: Solubility experiment in different media, thermodynamic solubility at 37°C
# Assay type: physicochemical
# condition.description: medium of pH 1, simulated gastric fluid, thermodynamic from solid; medium pH 1, 37° C., 24 hours, thermodynamic solubility
metric.name: solubility at 24 h

-- ask Reported solubility at 24 h for CCS(=O)(=O)O.C[C@H](Nc1ccc2c(c1)OCCn1cc(N3C(=O)SC[C@H]3C(F)F)nc1-2)C(N)=O [crystal form A of ethanesulfonate salt] : what is it?
-- reply 9370 µg/mL

###

# experimental.details: Pharmacokinetic (PK) assay in mice, single intragastric administration
# Format: in vivo
# condition.description: mouse, po, Balb/c male mice, 5 mg/kg, plasma, read-out: Area under the curve AUC0-∞
metric.name: AUC(0-inf) (ng·h/mL)
Could you give me the number in ng·h/mL? Just the number is fine.

INSERT INTO results (compound, uom, reported_result) VALUES
  ('C[C@H](Nc1ccc2c(c1)N(C)CCn1cc(N3C(=O)OC[C@H]3C(F)F)nc1-2)C(N)=O [Example 56]', 'ng·h/mL', 1360);

-- ask Reported AUC(0-inf) for C[C@H](Nc1ccc2c(c1)SCCn1cc(N3C(=O)OC[C@H]3C(F)F)nc1-2)C(N)=O [Example 62] : what is it?
-- reply 3470

###

Parameter Tmax: see the listing below.
# experimental.details: PK studies in animals of salt crystal forms, intragastric 30 mg/kg
# Type: in vivo
# condition.description: rat, in vivo, po, rats, 30 mg/kg (as free compound), 0.5% HPMC K4M suspension
# answer = value followed by unit

Some solved cases for reference:
INSERT INTO measurements (compound, reported_result) VALUES
  ('C[C@H](Nc1ccc2c(c1)OCCn1cc(N3C(=O)SC[C@H]3C(F)F)nc1-2)C(N)=O.O=S(=O)(O)O [crystal form D of sulfate salt]', '1 h'),
  ('CCS(=O)(=O)O.C[C@H](Nc1ccc2c(c1)OCCn1cc(N3C(=O)SC[C@H]3C(F)F)nc1-2)C(N)=O [crystal form A of ethanesulfonate salt]', '1 h');

Turning now to a further compound:
-- ask Reported Tmax for CS(=O)(=O)O.C[C@H](Nc1ccc2c(c1)OCCn1cc(N3C(=O)SC[C@H]3C(F)F)nc1-2)C(N)=O [crystal form A of mesylate salt] : what is it?
-- reply 1 h
